# Tested on: BxPC3 cells
# assay protocol: Clonogenic survival assay, gemcitabine kill curves
# Format: cell-based, human
# condition parameters: Homo sapiens, BXPC-3, BxPC3 cells (highest VDR levels); read-out: mean IC50 gemcitabine

{"columns": ["compound string", "assayed system", "IC50"],
 "data": [
  ["Nc1ccn([C@@H]2O[C@H](CO)[C@@H](O)C2(F)F)c(=O)n1", "BxPC3 cells", "~200 nM"]
]}

---

# System: BxPC3 cells
# assay protocol: Rucaparib clonogenic assay
# Assay type: cell-based
# condition parameters: Homo sapiens, BXPC-3, BXPC3, knockdown of BRCA1 (siRNA)
pIC50: −log10 of the molar value.

{"columns": ["compound string", "assayed system", "pIC50"],
 "data": [
  ["CNCc1ccc(-c2[nH]c3cc(F)cc4c3c2CCNC4=O)cc1", "BxPC3 cells", 6.00]
]}

---

# System: BxPC3 cells
# assay protocol: Clonogenic survival assay, gemcitabine kill curves
# Type: cell-based, human
# condition parameters: Homo sapiens, BXPC-3, BxPC3, VDR siRNA; read-out: mean IC50 gemcitabine
parameter measured: IC50

{"columns": ["compound string", "experimental result"],
 "data": [
  ["Nc1ccn([C@@H]2O[C@H](CO)[C@@H](O)C2(F)F)c(=O)n1", "~60 nM"]
]}

---

# Test system: Panc1 cells
# assay protocol: Clonogenic survival assay, gemcitabine
# Type: cell-based, human
# condition parameters: Homo sapiens, PANC-1, Panc1 transfected with WT-VDR (overexpression)
parameter measured: IC50

{"columns": ["compound", "assayed system", "experimental result"],
 "data": [
  ["Nc1ccn([C@@H]2O[C@H](CO)[C@@H](O)C2(F)F)c(=O)n1 [gemcitabine]", "Panc1 cells", "~250 nM"]
]}

---

# System: Panc1 cells
# assay protocol: Clonogenic survival assay, gemcitabine
# Format: cell-based, human
# condition parameters: Homo sapiens, PANC-1, Panc1, control transfected

{"columns": ["compound string", "IC50"],
 "data": [
  ["Nc1ccn([C@@H]2O[C@H](CO)[C@@H](O)C2(F)F)c(=O)n1", "~30 nM"]
]}

---

# Tested on: BxPC3 cells
# assay protocol: Clonogenic survival assay, gemcitabine kill curves
# Type: cell-based, human
# condition parameters: BxPC3 VDRkd cells transfected with WT-VDR; read-out: IC50 gemcitabine
pIC50: −log10 of the molar value.
parameter measured: pIC50

{"columns": ["compound string", "assayed system", "experimental result"],
 "data": [
  ["Nc1ccn([C@@H]2O[C@H](CO)[C@@H](O)C2(F)F)c(=O)n1", "BxPC3 cells", "~6.59"]
]}
